assay: NCI Yeast Anticancer Drug Screen. Data for the mlh1 rad18 strain (AID 175); conditions: S. cerevisiae mlh1 rad18 strain growth inhibition; at 50.0 µM (retest, dose inferred, filed as 5.0)
Compounds without any hit were thinned out: in the full panel of roughly 79,000, 15% have a hit. Activity calls are given as the source filed them. Rule as the data show it: active = growth inhibition above about 70%; inactive = the rest.
Return exactly one item of 1 for active, 0 for inactive

(Q) Hi, sorry to bother you, what did the test record for C/C=C/C=C1\C=Cc2c(C(=O)OC)coc(=O)c21 ?
(A) 1

(Q) Hi, sorry to bother you, what did the test record for O=C(O)c1ccc2cc3ccccc3cc2c1 ?
(A) 0

(Q) Hi, sorry to bother you, what did the test record for Cc1nn(C(=S)S)c(C)c1N=Nc1ccc(Br)cc1 ?
(A) 1

(Q) Hi, sorry to bother you, what did the test record for CN(C)Cc1ccccc1C(=O)C(=O)c1ccccc1CN(C)C ?
(A) 1

(Q) Hi, sorry to bother you, what did the test record for O=C(/C=C/c1ccccc1)CCN1CCN(CCC(=O)/C=C/c2ccccc2)CC1 ?
(A) 1

(Q) Hi, sorry to bother you, what did the test record for CCOC(=O)c1ccc(NC(=O)O/N=C(/Cl)CC)cc1 ?
(A) 1

(Q) Hi, sorry to bother you, what did the test record for O=Cc1ccc(/C=N\Nc2ccccc2)cc1 ?
(A) 0

(Q) Hi, sorry to bother you, what did the test record for O=c1cc(/C=C/c2ccccc2)cccc1O ?
(A) 1

(Q) Hi, sorry to bother you, what did the test record for CN1CCCC1c1cccc(Br)c1 (stereo not given) ?
(A) 0

(Q) Hi, sorry to bother you, what did the test record for c1ccc2c(c1)CCc1[nH]c3c(c1-2)-c1ccccc1CC3 ?
(A) 1

(Q) Hi, sorry to bother you, what did the test record for O=C1C=C(c2cccc(-c3ccccc3)c2)CCC1 ?
(A) 1
